- System: C. auris AR Bank # 0384 (strain K)
- Protocol text: MIC determination (broth microdilution)
- Type: cell-based, Candida auris
- Condition context: strain K = C. auris AR Bank # 0384; MIC-0; 48 h (CAS read at 24 h); Table 1; also in Table 2
Assay readout: MIC

Compound	MIC
CC(=O)OC[C@H]1O[C@@H]([S-])[C@H](OC(C)=O)[C@@H](OC(C)=O)[C@@H]1OC(C)=O.CCP(CC)CC.[Au+] [Auranofin, auranofin, reference compound]	> 31.3 µg/mL
[Cl][Au-][P+](c1ccccc1)(c1ccccc1)c1ccccc1[P+]([Au-][Cl])(c1ccccc1)c1ccccc1	> 31.3 µg/mL

Entry CC1CCC(C)[P+]1([Au-][Cl])c1ccccc1[P+]1([Au-][Cl])C(C)CCC1C (stereo not drawn) [Compound 5] : reported MIC = ?
> 31.3 µg/mL

Entry C[C@@H]1[C@H](O)[C@@H](C)/C=C/C=C/C=C/C=C/C=C/C=C/C=C/[C@H](O[C@@H]2O[C@H](C)[C@@H](O)[C@H](N)[C@@H]2O)C[C@@H]2O[C@](O)(C[C@@H](O)C[C@@H](O)[C@H](O)CC[C@@H](O)C[C@@H](O)CC(=O)O[C@H]1C)C[C@H](O)[C@H]2C(=O)O [AmB, amphotericin B, reference compound] : reported MIC = ?
1.95 µg/mL

Entry CC1CCC(C)[P+]1([Au-][Cl])c1ccccc1[P+]1([Au-][Cl])C(C)CCC1C (stereo not drawn) [Compound 3] : reported MIC = ?
> 31.3 µg/mL

Entry [Cl-].c1ccc([P+]2(c3ccccc3)c3ccccc3[P+](c3ccccc3)(c3ccccc3)[Au-3]23[P+](c2ccccc2)(c2ccccc2)c2ccccc2[P+]3(c2ccccc2)c2ccccc2)cc1 : reported MIC = ?
> 31.3 µg/mL

###

This listing pairs compounds with measured MIC.
- System: C. neoformans CN1 (strain N)
- Protocol text: MIC determination (broth microdilution)
- Assay type: cell-based, Cryptococcus neoformans
- Condition context: MIC-0, 72 h at 35° C.
Note: unit mg/L is implicit; provide only the numeric part.

Illustrative cases are given below, each with its answer.
Compound	Endpoint result
CC1CCC(C)[P+]1([Au-][Cl])c1ccccc1[P+]1([Au-][Cl])C(C)CCC1C (stereo not shown) [Compound 5]	15.6
CC(=O)OC[C@H]1O[C@@H]([S-])[C@H](OC(C)=O)[C@@H](OC(C)=O)[C@@H]1OC(C)=O.CCP(CC)CC.[Au+] [Auranofin, auranofin, reference compound]	3.9

Which measured MIC belongs to [Cl][Au-][P+](c1ccccc1)(c1ccccc1)c1ccccc1[P+]([Au-][Cl])(c1ccccc1)c1ccccc1 , tested on C. neoformans CN1 (strain N)?
3.9

Which measured MIC belongs to [Cl-].c1ccc([P+]2(c3ccccc3)c3ccccc3[P+](c3ccccc3)(c3ccccc3)[Au-3]23[P+](c2ccccc2)(c2ccccc2)c2ccccc2[P+]3(c2ccccc2)c2ccccc2)cc1 , tested on C. neoformans CN1 (strain N)?
3.9

###

- Test system: C. neoformans CN1 (strain N)
- Protocol text: MIC determination (broth microdilution)
- Type: cell-based, Cryptococcus neoformans
- Condition context: MIC-0, 72 h at 35° C.
Assay readout: MIC (µg/mL)
Note: unit µg/mL is implicit; provide only the numeric part.

Entry C[C@@H]1[C@H](O)[C@@H](C)/C=C/C=C/C=C/C=C/C=C/C=C/C=C/[C@H](O[C@@H]2O[C@H](C)[C@@H](O)[C@H](N)[C@@H]2O)C[C@@H]2O[C@](O)(C[C@@H](O)C[C@@H](O)[C@H](O)CC[C@@H](O)C[C@@H](O)CC(=O)O[C@H]1C)C[C@H](O)[C@H]2C(=O)O [AmB, amphotericin B, reference compound] : reported MIC = ?
0.98

###

This listing pairs compounds with measured MIC.
- Test system: F. graminearum 053 (strain T)
- Format: cell-based, Fusarium graminearum
- Condition context: strain T = F. graminearum 053; MIC-0; room temperature, 5 days

Illustrative cases are given below, each with its answer.
Compound	Target of assay	Endpoint result
CC1CCC(C)[P+]1([Au-][Cl])c1ccccc1[P+]1([Au-][Cl])C(C)CCC1C (stereo not drawn) [Compound 3]	F. graminearum 053 (strain T)	> 31.3 µg/mL
C[C@@H]1[C@H](O)[C@@H](C)/C=C/C=C/C=C/C=C/C=C/C=C/C=C/[C@H](O[C@@H]2O[C@H](C)[C@@H](O)[C@H](N)[C@@H]2O)C[C@@H]2O[C@](O)(C[C@@H](O)C[C@@H](O)[C@H](O)CC[C@@H](O)C[C@@H](O)CC(=O)O[C@H]1C)C[C@H](O)[C@H]2C(=O)O [AmB, amphotericin B, reference compound]	F. graminearum 053 (strain T)	7.8 µg/mL
CC(=O)OC[C@H]1O[C@@H]([S-])[C@H](OC(C)=O)[C@@H](OC(C)=O)[C@@H]1OC(C)=O.CCP(CC)CC.[Au+] [Auranofin, auranofin, reference compound]	F. graminearum 053 (strain T)	> 31.3 µg/mL

Entry [Cl][Au-][P+](c1ccccc1)(c1ccccc1)c1ccccc1[P+]([Au-][Cl])(c1ccccc1)c1ccccc1 [Compound 1] : reported MIC = ?
> 31.3 µg/mL

Entry [Cl-].c1ccc([P+]2(c3ccccc3)c3ccccc3[P+](c3ccccc3)(c3ccccc3)[Au-3]23[P+](c2ccccc2)(c2ccccc2)c2ccccc2[P+]3(c2ccccc2)c2ccccc2)cc1 [Compound 2] : reported MIC = ?
31.3 µg/mL

Entry CC1CCC(C)[P+]1([Au-][Cl])c1ccccc1[P+]1([Au-][Cl])C(C)CCC1C (stereo not drawn) [Compound 5] : reported MIC = ?
> 31.3 µg/mL

###

- Tested on: C. glabrata ATCC 2001 (strain H)
- Protocol text: MIC determination (broth microdilution)
- Type: cell-based, Candida glabrata
- Condition context: strain H = C. glabrata ATCC 2001; MIC-0; 48 h at 35° C.
This listing pairs compounds with measured MIC.
Note: unit mg/L is implicit; provide only the numeric part.

Compound	MIC [mg/L]
[Cl][Au-][P+](c1ccccc1)(c1ccccc1)c1ccccc1[P+]([Au-][Cl])(c1ccccc1)c1ccccc1	7.8
CC1CCC(C)[P+]1([Au-][Cl])c1ccccc1[P+]1([Au-][Cl])C(C)CCC1C (stereo not drawn) [Compound 5]	15.6
C[C@@H]1[C@H](O)[C@@H](C)/C=C/C=C/C=C/C=C/C=C/C=C/C=C/[C@H](O[C@@H]2O[C@H](C)[C@@H](O)[C@H](N)[C@@H]2O)C[C@@H]2O[C@](O)(C[C@@H](O)C[C@@H](O)[C@H](O)CC[C@@H](O)C[C@@H](O)CC(=O)O[C@H]1C)C[C@H](O)[C@H]2C(=O)O [AmB, amphotericin B, reference compound]	3.9

Continue with the next compound.
Entry [Cl-].c1ccc([P+]2(c3ccccc3)c3ccccc3[P+](c3ccccc3)(c3ccccc3)[Au-3]23[P+](c2ccccc2)(c2ccccc2)c2ccccc2[P+]3(c2ccccc2)c2ccccc2)cc1 : reported MIC = ?
7.8

###

- System: C. neoformans CN2 (strain O)
- Protocol text: MIC determination (broth microdilution)
- Assay type: cell-based, Cryptococcus neoformans
- Condition context: MIC-0, 72 h at 35° C.
This listing pairs molecules with measured MIC (in parentheses).
Note: unit µM is implicit; provide only the numeric part.

Molecule	Endpoint result
[Cl][Au-][P+](c1ccccc1)(c1ccccc1)c1ccccc1[P+]([Au-][Cl])(c1ccccc1)c1ccccc1	4.3
C[C@@H]1[C@H](O)[C@@H](C)/C=C/C=C/C=C/C=C/C=C/C=C/C=C/[C@H](O[C@@H]2O[C@H](C)[C@@H](O)[C@H](N)[C@@H]2O)C[C@@H]2O[C@](O)(C[C@@H](O)C[C@@H](O)[C@H](O)CC[C@@H](O)C[C@@H](O)CC(=O)O[C@H]1C)C[C@H](O)[C@H]2C(=O)O [AmB, amphotericin B, reference compound]	2.1
CC1CCC(C)[P+]1([Au-][Cl])c1ccccc1[P+]1([Au-][Cl])C(C)CCC1C (stereo not drawn) [Compound 5]	10.1
CC1CCC(C)[P+]1([Au-][Cl])c1ccccc1[P+]1([Au-][Cl])C(C)CCC1C (stereo not drawn) [Compound 3]	40.6
CC(=O)OC[C@H]1O[C@@H]([S-])[C@H](OC(C)=O)[C@@H](OC(C)=O)[C@@H]1OC(C)=O.CCP(CC)CC.[Au+] [Auranofin, auranofin, reference compound]	11.5

Continue with the next molecule.
Entry [Cl-].c1ccc([P+]2(c3ccccc3)c3ccccc3[P+](c3ccccc3)(c3ccccc3)[Au-3]23[P+](c2ccccc2)(c2ccccc2)c2ccccc2[P+]3(c2ccccc2)c2ccccc2)cc1 : reported MIC (in parentheses) = ?
3.5

###

- Test system: C. albicans ATCC 90819(R) (strain G)
- Format: cell-based, Candida albicans
- Condition context: strain G = C. albicans ATCC 90819(R); MIC-0; 48 h; listed as printed without letter, below G
This listing pairs compounds with measured MIC (in parentheses).
Note: unit µM is implicit; provide only the numeric part.

Illustrative cases are given below, each with its answer.
Compound	Endpoint result
[Cl][Au-][P+](c1ccccc1)(c1ccccc1)c1ccccc1[P+]([Au-][Cl])(c1ccccc1)c1ccccc1	8.6
[Cl-].c1ccc([P+]2(c3ccccc3)c3ccccc3[P+](c3ccccc3)(c3ccccc3)[Au-3]23[P+](c2ccccc2)(c2ccccc2)c2ccccc2[P+]3(c2ccccc2)c2ccccc2)cc1	6.9

Entry C[C@@H]1[C@H](O)[C@@H](C)/C=C/C=C/C=C/C=C/C=C/C=C/C=C/[C@H](O[C@@H]2O[C@H](C)[C@@H](O)[C@H](N)[C@@H]2O)C[C@@H]2O[C@](O)(C[C@@H](O)C[C@@H](O)[C@H](O)CC[C@@H](O)C[C@@H](O)CC(=O)O[C@H]1C)C[C@H](O)[C@H]2C(=O)O [AmB, amphotericin B, reference compound] : reported MIC (in parentheses) = ?
1.1

Entry CC1CCC(C)[P+]1([Au-][Cl])c1ccccc1[P+]1([Au-][Cl])C(C)CCC1C (stereo not drawn) [Compound 3] : reported MIC (in parentheses) = ?
40.6

Entry CC1CCC(C)[P+]1([Au-][Cl])c1ccccc1[P+]1([Au-][Cl])C(C)CCC1C (stereo not drawn) [Compound 5] : reported MIC (in parentheses) = ?
10.1

Reference source: patent US11564394B2
